- ASSAY TEXT: Intrinsic clearance in human assessed as half-life at 1 uM
- Assay type: ADME

{"columns": ["LINE NOTATION", "UNIT DESCRIPTOR", "half-life at 1 µM"],
 "data": [
  ["COc1cc(-c2ncc(COc3cccc([C@@H](CC(=O)O)C4CC4)c3)nc2CC(C)C)c(F)cn1", "h", 1.72]
]}

###

- ASSAY TEXT: Intrinsic clearance in dog assessed as half-life at 1 uM
- Format: ADME, Canis lupus familiaris
MEASURED ENDPOINT: half-life at 1 µM (h)

{"columns": ["LINE NOTATION", "UNIT DESCRIPTOR", "VALUE MEASURED"],
 "data": [
  ["COc1cc(-c2ncc(COc3cccc([C@@H](CC(=O)O)C4CC4)c3)nc2CC(C)C)c(F)cn1", "h", 1.38]
]}
